Experiment: isobaric coefficient of expansion
Conditions: 338.15 K; 30000 kPa; Liquid; Microcalorimeter
property-name: isobaric coefficient of expansion

// known answers, use as guide
Please give the measured isobaric coefficient of expansion for this molecule: CCCCCCCC[n+]1ccn(C)c1.F[B-](F)(F)F [1-methyl-3-octylimidazolium tetrafluoroborate] 0.000553 1/K

Data request, read-out isobaric coefficient of expansion, for CCCCCCn1cc[n+](C)c1.F[B-](F)(F)F [1-hexyl-3-methylimidazolium tetrafluoroborate] 0.000553 1/K

Field request: isobaric coefficient of expansion | item: CCCCCC[n+]1ccn(C)c1.O=S(=O)([N-]S(=O)(=O)C(F)(F)F)C(F)(F)F 0.000597 1/K

Which isobaric coefficient of expansion reading was recorded for the molecule CCn1cc[n+](C)c1.F[B-](F)(F)F [1-ethyl-3-methylimidazolium tetrafluoroborate] ? 0.000549 1/K

Suppose we examine the molecule CCn1cc[n+](C)c1.O=S(=O)([N-]S(=O)(=O)C(F)(F)F)C(F)(F)F ; what isobaric coefficient of expansion value has been reported? 0.000598 1/K

Now take the following molecule into account.
# isobaric coefficient of expansion lookup, item CCCC[n+]1cccc(C)c1.F[B-](F)(F)F [1-butyl-3-methylpyridinium tetrafluoroborate] 0.000545 1/K

* * *

Assay: isobaric coefficient of expansion
Conditions: 288.15 K; 35000 kPa; Liquid; Microcalorimeter
property-name: isobaric coefficient of expansion

Worked set:
Give the measured isobaric coefficient of expansion of CCn1cc[n+](C)c1.F[B-](F)(F)F [1-ethyl-3-methylimidazolium tetrafluoroborate] . 0.000569 1/K

Could you tell me which isobaric coefficient of expansion is on file for CCCCCC[n+]1ccn(C)c1.O=S(=O)([N-]S(=O)(=O)C(F)(F)F)C(F)(F)F ? 0.000614 1/K

Look up isobaric coefficient of expansion: CCCCCCCC[n+]1ccn(C)c1.F[B-](F)(F)F [1-methyl-3-octylimidazolium tetrafluoroborate] 0.000572 1/K

Any idea what isobaric coefficient of expansion was measured for CCn1cc[n+](C)c1.O=S(=O)([N-]S(=O)(=O)C(F)(F)F)C(F)(F)F ? 0.000616 1/K

Returns the measured isobaric coefficient of expansion for the input compound. Input: CCCC[n+]1cccc(C)c1.F[B-](F)(F)F [1-butyl-3-methylpyridinium tetrafluoroborate] 0.000569 1/K

Here is another compound to look at.
Dear colleague, I am looking for the recorded isobaric coefficient of expansion of the following compound: CCCCCCn1cc[n+](C)c1.F[B-](F)(F)F [1-hexyl-3-methylimidazolium tetrafluoroborate] 0.000572 1/K

* * *

Test: isobaric coefficient of expansion
Conditions: 278.15 K; 5000 kPa; Liquid; Microcalorimeter
Catalogue of isobaric coefficient of expansion readings, one per entry.

As a guide, the following entries are already answered.
Would you mind telling me what isobaric coefficient of expansion value was observed for CCCCCCCC[n+]1ccn(C)c1.F[B-](F)(F)F [1-methyl-3-octylimidazolium tetrafluoroborate] ? 0.000621 1/K

I am curious: what isobaric coefficient of expansion value has been reported for CCn1cc[n+](C)c1.O=S(=O)([N-]S(=O)(=O)C(F)(F)F)C(F)(F)F ? 0.00067 1/K

What does the record list as isobaric coefficient of expansion for CCCCCCn1cc[n+](C)c1.F[B-](F)(F)F [1-hexyl-3-methylimidazolium tetrafluoroborate] ? 0.000621 1/K

***
Field request: isobaric coefficient of expansion | item: CCn1cc[n+](C)c1.F[B-](F)(F)F [1-ethyl-3-methylimidazolium tetrafluoroborate] 0.000613 1/K

Look at this molecule and give its reported isobaric coefficient of expansion. CCCC[n+]1cccc(C)c1.F[B-](F)(F)F [1-butyl-3-methylpyridinium tetrafluoroborate] 0.000607 1/K

Consider the molecule CCCCCC[n+]1ccn(C)c1.O=S(=O)([N-]S(=O)(=O)C(F)(F)F)C(F)(F)F and give its measured isobaric coefficient of expansion. 0.000674 1/K

* * *

Assay: isobaric coefficient of expansion
Settings: 348.15 K; 45000 kPa; Liquid; Microcalorimeter
Recorded isobaric coefficient of expansion for the following molecules

Reference set (2 entries):
# input molecule: CCCCCCCC[n+]1ccn(C)c1.F[B-](F)(F)F [1-methyl-3-octylimidazolium tetrafluoroborate] ; wanted: its isobaric coefficient of expansion 0.000529 1/K

Query: isobaric coefficient of expansion; subject: CCCCCCn1cc[n+](C)c1.F[B-](F)(F)F [1-hexyl-3-methylimidazolium tetrafluoroborate] 0.000529 1/K

Others:
Item under review: CCn1cc[n+](C)c1.F[B-](F)(F)F [1-ethyl-3-methylimidazolium tetrafluoroborate] . Reported isobaric coefficient of expansion? 0.000527 1/K

Which isobaric coefficient of expansion value is on record for CCCC[n+]1cccc(C)c1.F[B-](F)(F)F [1-butyl-3-methylpyridinium tetrafluoroborate] ? 0.000529 1/K

Please give the measured isobaric coefficient of expansion for this molecule: CCn1cc[n+](C)c1.O=S(=O)([N-]S(=O)(=O)C(F)(F)F)C(F)(F)F 0.000572 1/K

Which isobaric coefficient of expansion value belongs to CCCCCC[n+]1ccn(C)c1.O=S(=O)([N-]S(=O)(=O)C(F)(F)F)C(F)(F)F ? 0.000567 1/K

* * *

Test: isobaric coefficient of expansion
Settings: 348.15 K; 40000 kPa; Liquid; Microcalorimeter
property-name: isobaric coefficient of expansion

Would you please look over these solved cases?
Which isobaric coefficient of expansion is listed for CCCCCC[n+]1ccn(C)c1.O=S(=O)([N-]S(=O)(=O)C(F)(F)F)C(F)(F)F ? 0.000575 1/K

Return reported isobaric coefficient of expansion; argument: CCCCCCCC[n+]1ccn(C)c1.F[B-](F)(F)F [1-methyl-3-octylimidazolium tetrafluoroborate] 0.000535 1/K

Reported isobaric coefficient of expansion for CCCCCCn1cc[n+](C)c1.F[B-](F)(F)F [1-hexyl-3-methylimidazolium tetrafluoroborate] : what is it? 0.000535 1/K

Form field: reported isobaric coefficient of expansion of CCCC[n+]1cccc(C)c1.F[B-](F)(F)F [1-butyl-3-methylpyridinium tetrafluoroborate] 0.000534 1/K

So what does the record say about isobaric coefficient of expansion for CCn1cc[n+](C)c1.O=S(=O)([N-]S(=O)(=O)C(F)(F)F)C(F)(F)F ? 0.000579 1/K

Now for a further compound.
Look up isobaric coefficient of expansion for this compound: CCn1cc[n+](C)c1.F[B-](F)(F)F [1-ethyl-3-methylimidazolium tetrafluoroborate] 0.000533 1/K

* * *

Experiment: isobaric coefficient of expansion
Conditions: 328.15 K; 45000 kPa; Liquid; Microcalorimeter
Reported isobaric coefficient of expansion values are given for each entry in this list.

Below, each entry is followed by its recorded isobaric coefficient of expansion result.
Look up isobaric coefficient of expansion: CCCC[n+]1cccc(C)c1.F[B-](F)(F)F [1-butyl-3-methylpyridinium tetrafluoroborate] 0.000535 1/K

Find the recorded isobaric coefficient of expansion belonging to CCn1cc[n+](C)c1.F[B-](F)(F)F [1-ethyl-3-methylimidazolium tetrafluoroborate] and report it. 0.000533 1/K

Can you share its isobaric coefficient of expansion? I mean this compound: CCCCCC[n+]1ccn(C)c1.O=S(=O)([N-]S(=O)(=O)C(F)(F)F)C(F)(F)F 0.000574 1/K

Others:
Given the compound CCCCCCn1cc[n+](C)c1.F[B-](F)(F)F [1-hexyl-3-methylimidazolium tetrafluoroborate] , what is its reported isobaric coefficient of expansion? 0.000536 1/K

What value of isobaric coefficient of expansion has been reported for the following compound? CCn1cc[n+](C)c1.O=S(=O)([N-]S(=O)(=O)C(F)(F)F)C(F)(F)F 0.000576 1/K

Please look up its isobaric coefficient of expansion: CCCCCCCC[n+]1ccn(C)c1.F[B-](F)(F)F [1-methyl-3-octylimidazolium tetrafluoroborate] 0.000536 1/K

* * *

Test: isobaric coefficient of expansion
Conditions: 278.15 K; 25000 kPa; Liquid; Microcalorimeter
property-name: isobaric coefficient of expansion

Examples with answers:
Name the recorded isobaric coefficient of expansion for CCCCCC[n+]1ccn(C)c1.O=S(=O)([N-]S(=O)(=O)C(F)(F)F)C(F)(F)F . 0.000635 1/K

Bench note: what isobaric coefficient of expansion did CCCCCCCC[n+]1ccn(C)c1.F[B-](F)(F)F [1-methyl-3-octylimidazolium tetrafluoroborate] show? 0.00059 1/K

// returns reported isobaric coefficient of expansion for input CCCCCCn1cc[n+](C)c1.F[B-](F)(F)F [1-hexyl-3-methylimidazolium tetrafluoroborate] 0.00059 1/K

Reported isobaric coefficient of expansion for CCn1cc[n+](C)c1.O=S(=O)([N-]S(=O)(=O)C(F)(F)F)C(F)(F)F : what is it? 0.000634 1/K

Item CCn1cc[n+](C)c1.F[B-](F)(F)F [1-ethyl-3-methylimidazolium tetrafluoroborate] has what recorded isobaric coefficient of expansion? 0.000585 1/K

Others:
Please give the measured isobaric coefficient of expansion for this molecule: CCCC[n+]1cccc(C)c1.F[B-](F)(F)F [1-butyl-3-methylpyridinium tetrafluoroborate] 0.000584 1/K
